assay comment: Binding affinity to 5'-biotin labeled GCGAGGCAGACACGCTTTTGCGTGTCTGCCTCGC-3' DNA (unknown origin) assessed as dissociation rate by SPR analysis
measured attribute: Kd (×10⁻³ /s)
Numbers only, in ×10⁻³ /s.

# record smiles, quantity unit, result
measured = [
    ("CC(=O)Nc1cn(C)c(C(=O)Nc2cn(C)c(C(=O)Nc3cc(C(=O)NCCC(=O)Nc4cn(C)c(C(=O)Nc5cc(C(=O)Nc6cc(C(=O)NCCCC(=O)Nc7cn(C)c(C(=O)Nc8cc(C(=O)Nc9cc(C(=O)NCCC(=O)Nc%10cn(C)c(C(=O)Nc%11cc(C(=O)Nc%12cc(C(=O)NCCC(=O)NCCCN(C)CCCN)n(C)c%12)n(C)c%11)n%10)n(C)c9)n(C)c8)n7)n(C)c6)n(C)c5)n4)n(C)c3)n2)n1", "×10⁻³ /s", 1.4),
    ("CC(=O)Nc1cn(C)c(C(=O)Nc2cn(C)c(C(=O)Nc3cc(C(=O)NCCC(=O)Nc4cn(C)c(C(=O)Nc5cc(C(=O)Nc6cc(C(=O)NCCCC(=O)Nc7cn(C)c(C(=O)Nc8cc(C(=O)NCCOCCOCC(=O)Nc9cn(C)c(C(=O)Nc%10cc(C(=O)Nc%11cc(C(=O)NCCC(=O)NCCCN(C)CCCN)n(C)c%11)n(C)c%10)n9)n(C)c8)n7)n(C)c6)n(C)c5)n4)n(C)c3)n2)n1", "×10⁻³ /s", 4.5),
]

# context switch: different compound, same Kd
Entry CC(=O)Nc1cn(C)c(C(=O)Nc2cn(C)c(C(=O)NCCC(=O)NCCC(=O)Nc3cn(C)c(C(=O)Nc4cc(C(=O)Nc5cc(C(=O)NCCCC(=O)Nc6cn(C)c(C(=O)Nc7cc(C(=O)Nc8cc(C(=O)NCCC(=O)Nc9cn(C)c(C(=O)Nc%10cc(C(=O)Nc%11cc(C(=O)NCCC(=O)NCCCN(C)CCCN)n(C)c%11)n(C)c%10)n9)n(C)c8)n(C)c7)n6)n(C)c5)n(C)c4)n3)n2)n1 — recorded Kd = 1.9

---

Assign Ka to each entry below.
assay comment: Binding affinity to 5'-biotin labeled GCGAGGCAGACACGCTTTTGCGTGTCTGCCTCGC-3' DNA (unknown origin) assessed as association rate by SPR analysis

# record smiles, Ka
measured = [
    ("CC(=O)Nc1cn(C)c(C(=O)Nc2cn(C)c(C(=O)NCCC(=O)NCCC(=O)Nc3cn(C)c(C(=O)Nc4cc(C(=O)Nc5cc(C(=O)NCCCC(=O)Nc6cn(C)c(C(=O)Nc7cc(C(=O)Nc8cc(C(=O)NCCC(=O)Nc9cn(C)c(C(=O)Nc%10cc(C(=O)Nc%11cc(C(=O)NCCC(=O)NCCCN(C)CCCN)n(C)c%11)n(C)c%10)n9)n(C)c8)n(C)c7)n6)n(C)c5)n(C)c4)n3)n2)n1", "1.3 ×10⁵ /Ms"),
    ("CC(=O)Nc1cn(C)c(C(=O)Nc2cn(C)c(C(=O)NCCOCCOCC(=O)Nc3cn(C)c(C(=O)Nc4cc(C(=O)Nc5cc(C(=O)NCCCC(=O)Nc6cn(C)c(C(=O)Nc7cc(C(=O)Nc8cc(C(=O)NCCC(=O)Nc9cn(C)c(C(=O)Nc%10cc(C(=O)Nc%11cc(C(=O)NCCC(=O)NCCCN(C)CCCN)n(C)c%11)n(C)c%10)n9)n(C)c8)n(C)c7)n6)n(C)c5)n(C)c4)n3)n2)n1", "1 ×10⁵ /Ms"),
    ("CC(=O)Nc1cn(C)c(C(=O)Nc2cn(C)c(C(=O)Nc3cc(C(=O)NCCC(=O)Nc4cn(C)c(C(=O)Nc5cc(C(=O)Nc6cc(C(=O)NCCCC(=O)Nc7cn(C)c(C(=O)Nc8cc(C(=O)Nc9cc(C(=O)NCCC(=O)Nc%10cn(C)c(C(=O)Nc%11cc(C(=O)Nc%12cc(C(=O)NCCC(=O)NCCCN(C)CCCN)n(C)c%12)n(C)c%11)n%10)n(C)c9)n(C)c8)n7)n(C)c6)n(C)c5)n4)n(C)c3)n2)n1", "2.4 ×10⁵ /Ms"),
    ("CC(=O)Nc1cn(C)c(C(=O)Nc2cn(C)c(C(=O)Nc3cc(C(=O)NCCC(=O)Nc4cn(C)c(C(=O)Nc5cc(C(=O)Nc6cc(C(=O)NCCCC(=O)Nc7cn(C)c(C(=O)Nc8cc(C(=O)NCCOCCOCC(=O)Nc9cn(C)c(C(=O)Nc%10cc(C(=O)Nc%11cc(C(=O)NCCC(=O)NCCCN(C)CCCN)n(C)c%11)n(C)c%10)n9)n(C)c8)n7)n(C)c6)n(C)c5)n4)n(C)c3)n2)n1", "1 ×10⁴ /Ms"),
]

# context switch: different compound, same Ka
Entry CC(=O)Nc1cn(C)c(C(=O)Nc2cn(C)c(C(=O)NCCOCCOCC(=O)Nc3cn(C)c(C(=O)Nc4cc(C(=O)Nc5cc(C(=O)NCCCC(=O)Nc6cn(C)c(C(=O)Nc7cc(C(=O)NCCOCCOCC(=O)Nc8cn(C)c(C(=O)Nc9cc(C(=O)Nc%10cc(C(=O)NCCC(=O)NCCCN(C)CCCN)n(C)c%10)n(C)c9)n8)n(C)c7)n6)n(C)c5)n(C)c4)n3)n2)n1 — recorded Ka = 1.8 ×10⁴ /Ms
